Read-out: TIMP metallopeptidase inhibitor 1 (TIMP1), TIMP1 (gene 7076)
Assay: BSK_hDFCGF_TIMP1: BioMAP Diversity Plus: hDFCGF Assay for TIMP metallopeptidase inhibitor 1 (TIMP1) Biomarker Activity (AID 2283062)
Settings: primary human foreskin fibroblasts; actives raise or lower the signal
Experimental: BSK_hDFCGF is a cell-based, multiplexed-readout assay that uses foreskin fibroblast, a human skin primary cell, with measurements taken at 24 hours after chemical dosing in a 96-well plate.BSK_hDFCGF_TIMP1 is an assay component measured in the BSK_hDFCGF assay. It measures TIMP-1 antibody related to regulation of gene expression using ELISA technology.Data from the assay component BSK_hDFCGF_TIMP1 was analyzed into 1 assay endpoint. […]
Activity calls are given as the source filed them. How the source made its calls: active means hit-call score of the fitted dose curve at least 0.9, where 1 is the maximum; inactive means score below 0.9.
The reply should name one outcome from true for active, false for inactive

Example cases with answers are listed next.
{"columns": ["compound", "assigned.label"],
 "data": [
  ["CCCCCCCCCCCCCCCC[N+](C)(C)Cc1ccccc1", "true"],
  ["O=P(O)(O)OCCC(F)(F)C(F)(F)C(F)(F)C(F)(F)C(F)(F)C(F)(F)F", "false"],
  ["FC(F)(F)C(F)(F)C(F)(F)N(C(F)(F)C(F)(F)C(F)(F)F)C(F)(F)C(F)(F)C(F)(F)F", "false"],
  ["Cc1ccc(S(=O)(=O)OCC(F)(F)C(F)(F)C(F)(F)C(F)(F)C(F)(F)C(F)F)cc1", "false"],
  ["CC(C)(C)C(=O)CC(=O)C(F)(F)C(F)(F)C(F)(F)F", "false"]
]}

Q. Per the records of this test, what outcome belongs to O=C(O)C(F)(F)C(F)(F)C(F)(F)C(F)(F)F ?
A. false

Q. Hello, I am checking results. What call was entered for FC(F)(F)C(F)(F)C(F)(F)C(F)(F)C(F)(F)C(F)(F)C(F)(F)I ?
A. false

Q. Name the outcome recorded for O=C(O)C(F)(OC(F)(F)C(F)(OC(F)(F)C(F)(F)C(F)(F)F)C(F)(F)F)C(F)(F)F (centres undefined) in the assay.
A. false

Q. Outcome? FC(F)(F)C(F)(F)C(F)(F)C(F)(F)C(F)(F)C(F)(F)C(F)(F)C(F)(F)CCS
A. false

Q. So what was the verdict on CCc1ccc(C(c2ccc(CC)cc2)C(Cl)Cl)cc1 in this test?
A. true

Q. Assay outcome for O=S(=O)(O)C(F)(F)C(F)(F)C(F)(F)C(F)(F)C(F)(F)C(F)(F)C(F)(F)F : what was it?
A. false

###

Assay: ATG_NFI_CIS: Attagene CIS-FACTORIAL HepG2 Assay for human Nuclear Factor I (NFI) (AID 2282989)
Settings: HepG2 cis-regulatory reporter, NFI response element transcription; actives raise or lower the signal
Method: ATG_CIS is a cell-based, multiplexed-readout assay that uses HepG2, a human liver cell line, with measurements taken at 24 hours after chemical dosing in a 24-well plate.ATG_NFI_CIS is one of 52 assay component(s) measured or calculated from the ATG_CIS assay. […] This assay endpoint, ATG_NFI_CIS, was analyzed with bidirectional fitting relative to DMSO as the negative control and baseline of activity. […]
The source made the active and inactive calls. Rule for the calls: active = hit-call score of the fitted dose curve at least 0.9, where 1 is the maximum; inactive = score below 0.9.
Answer with one of the outcomes given here: active, inactive

{"columns": ["compound", "assigned.label"],
 "data": [
  ["OCC(F)(F)C(F)(F)C(F)(F)C(F)F", "inactive"],
  ["O=C(O)C(F)(F)C(F)(F)C(F)(F)C(F)(F)C(F)(F)C(F)(F)C(F)(F)C(F)(F)C(F)(F)C(F)F", "inactive"],
  ["COC(OC(C)=O)c1ccccc1 (centres undefined)", "inactive"]
]}

Consider now this further compound.
Q. Hi, sorry to bother you, what did the test record for N=C(N)C(F)(F)C(F)(F)C(F)(F)C(F)(F)C(F)(F)C(F)(F)C(F)(F)F ?
A. active
